B1: NP_002788.1 (parent)
chain: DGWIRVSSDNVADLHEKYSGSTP

# Variants of: B1
# assay_info: protein stability index of a GFP-peptide fusion (GPS, HEK-293T) (PSI 1-6); higher = more stable;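 further: lentivirally expressed fusion library, cells FACS-sorted into six equal-sized GFP/DsRed ratio bins, PSI computed from sequencing read fractions per bin weighted by bin number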
# measurement_context: c terminus: native
readout: protein stability index

> print(dat)
    variant  endpoint.result
 1     S19W             2.68
 2     E16C             2.62
 3     L14E             2.74
 4     K17L             3.06
 5      W3T              5.5
 6      D9E             2.34
 7     E16W             2.65
 8     G20F             3.63
 9      D1M              2.3
10     H15F             2.82
11      S7R             4.19
12      D1F              2.3
13     E16I             2.58
14     S19G             3.02
15     S21H             2.49
16     N10T             2.37
17     K17D             3.58
18      S7I             2.25
19      G2V             2.49
20     V11T             2.48
21     S21Y             2.26
22     A12E             2.52
23      G2M             2.36
24     N10C             2.21
25     H15Q             2.76
26      D9P             2.25
27      D9N             2.29
28      G2E             2.51
29      I4C             3.19
30     K17Q             3.16
31     Y18N             3.13
32     N10D             2.54
33      W3H             5.35
34     S19Y             2.47
35      R5M             2.64
36     A12T             2.43
37      S8N             2.31
38     E16N             2.95
39      G2N             2.42
40     S19H             2.56
41     V11N             2.69
42      S8H             2.57
43     H15V              2.4
44     Y18T             3.66
45      V6F             2.77
46     A12I             2.59
47     L14W             2.62
48      S8T             2.87
49     A12N             2.48
50     K17Y             3.34
51     E16M             2.53
52     G20N             3.92
53     E16G             3.13
54     E16H             2.67
55     A12C             2.57
56     N10I             2.28
57      D9Q             2.41
58      W3N             5.39
59     S21G             3.59
60     H15C             2.73
61     N10E             2.53
62     L14K             2.37
63      I4K             3.67
64      I4P             5.29
65     H15P             3.06
66      D9Y             2.24
67     S21L             2.06
68     A12K             2.33
69      W3S             5.54
70     S19F             2.82
71     L14C             2.92
72     E16T              2.8
73     A12M              2.3
74     S21W             3.02
75     Y18M             2.92
76     G20T             4.17
77      G2T             2.09
78      V6P             5.05
79      V6Q             2.41
80     S19R             2.34
81      D1K             2.09
82     K17N             3.33
83     T22Q             2.78
84     G20A              3.8
85      V6H             2.18
86     H15N             2.92
87     K17H             3.24
88     H15Y             2.42
89      V6D             4.78
90      R5L              2.5
91     E16S             2.64
